Data origin, for the record: paper PMC6842527

- test-target: BcEPSPS (5-enolpyruvylshikimate-3-phosphate synthase)
- Construct: full-length coding region (518 aa) in pET-32a, His-tagged fusion BcEPSPS-His, expressed in E. coli BL21
- assay-remarks: malachite green phosphate-release enzyme assay with purified recombinant BcEPSPS; Ki at […] S3P (IC50 […] also reported)
property-label: pKi
Units for pKi: none; it is -log10 of a concentration expressed in mol/L.

Given the compound O=C(O)CNCP(=O)(O)O [glyphosate] and test system BcEPSPS (5-enolpyruvylshikimate-3-phosphate synthase), the measured pKi is 7.34
